FYI, the data here is from the supplement of paper PMC4466140.

- study-system: CaBbc1
- protocol: SPOT peptide array binding signal intensity (averaged, normalized) (arbitrary units (background-subtracted, floor 0; scale differs between SH3 domains)); higher = stronger binding of the SH3 domain to the peptide
The entries below are paired with their reported SPOT peptide array binding signal intensity.
Just the number, please, no unit attached.

Worked cases, SPOT peptide array binding signal intensity given:
{"binder": "AATTSTPPLPRRRAT", "numeric-result": 1600}
{"binder": "RVRKTHVPASKRPSG", "numeric-result": 188}
{"binder": "GLRRARYKFPGQQKI", "numeric-result": 91.5}
{"binder": "GPPPPLPPPLFPSSS", "numeric-result": 1}
{"binder": "SSSSSPPPLPTRRDH", "numeric-result": 378}

Fill blank: measured SPOT peptide array binding signal intensity of the binder NTMKKRPAPPSLPSL is ____. 151

# query: SPOT peptide array binding signal intensity of entry IHTRRPSSTSQYLIR 415

What measured SPOT peptide array binding signal intensity goes with FPPKRKPLLRPQRSD ? 793

I have this binder here, LRWRHKFFLPAIAAI , and I need its recorded SPOT peptide array binding signal intensity. 13

What does the record list as SPOT peptide array binding signal intensity for PHNPSPFFPPPDFND ? 14

# get_value(readout='SPOT peptide array binding signal intensity', item= KRRAPPPVPKKPSSR ) 2030

If you can, please state the reported SPOT peptide array binding signal intensity value of NLKKRPPTAPQRKIS . 646
